- Assay Text: in vitro
- Protocol Conditions: human, liver microsomes
- Description: Metabolic stability in human liver microsome assessed as intrinsic clearance
Parameter Measured: microsomal CLint (µL/min/mg)
Hi! Could you send only the number? It should be in µL/min/mg, unit omitted.

**Q:** What does the data say about its microsomal CLint? Entry: "Cc1sc2c(c1C)C(c1ccc(Cl)cc1)=N[C@@H](CC(=O)OC(C)(C)C)c1nnc(C)n1-2"
**A:** 39.5

====

- Test system: BT-549
- Assay Text: Antiproliferative activity against human BT-549 cells assessed as cell viability incubated for 72 hrs in presence of Palbociclib by MTT assay
- Format: functional, cell-based
- Protocol Conditions: BT-549, 72 h
Parameter Measured: pIC50
Please express pIC50 as -log10 of the molar concentration.

**Q:** What does the data say about its pIC50? Entry: "Cc1sc2c(c1C)C(c1ccc(Cl)cc1)=N[C@@H](CC(=O)OC(C)(C)C)c1nnc(C)n1-2"
**A:** 5.98
